- target_or_system: T1, TtRecF S261C (Thermus thermophilus, UniProt Q5SLM9 1-343, S261C)
- T1 sequence: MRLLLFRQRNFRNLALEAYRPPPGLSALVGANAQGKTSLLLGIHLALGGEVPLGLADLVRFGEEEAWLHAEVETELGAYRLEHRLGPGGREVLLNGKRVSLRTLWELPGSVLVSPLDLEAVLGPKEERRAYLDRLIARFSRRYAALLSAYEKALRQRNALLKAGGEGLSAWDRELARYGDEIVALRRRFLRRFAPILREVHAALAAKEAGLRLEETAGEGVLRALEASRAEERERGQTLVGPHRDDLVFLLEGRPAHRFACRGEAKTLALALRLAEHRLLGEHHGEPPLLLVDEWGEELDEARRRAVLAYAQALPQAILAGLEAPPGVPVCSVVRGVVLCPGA
- experimental_protocol: BLI
pKd: −log10 of the molar value.
metric: pKd

binder="GCAATGAAGTACGCTTGCCAGCTGCAGTCATGATTG (ssDNA) [biotinylated 36-mer ssDNA]" reported_value=4.71
